Listing of entries alongside the reported Biochem EGFR %Inhibition.
target: EGFR (Homo sapiens); construct: Add 7 ug A431 cell lysate per well (EGFR source); endogenous in cells; host or cells: A431; assay: EGFR ELISA assay (in vitro kinase activity, EGFR captured from A431 cell lysate); format: biochemical; design: concentration or dose not given beside the values
Sequence (P00533 25-1210): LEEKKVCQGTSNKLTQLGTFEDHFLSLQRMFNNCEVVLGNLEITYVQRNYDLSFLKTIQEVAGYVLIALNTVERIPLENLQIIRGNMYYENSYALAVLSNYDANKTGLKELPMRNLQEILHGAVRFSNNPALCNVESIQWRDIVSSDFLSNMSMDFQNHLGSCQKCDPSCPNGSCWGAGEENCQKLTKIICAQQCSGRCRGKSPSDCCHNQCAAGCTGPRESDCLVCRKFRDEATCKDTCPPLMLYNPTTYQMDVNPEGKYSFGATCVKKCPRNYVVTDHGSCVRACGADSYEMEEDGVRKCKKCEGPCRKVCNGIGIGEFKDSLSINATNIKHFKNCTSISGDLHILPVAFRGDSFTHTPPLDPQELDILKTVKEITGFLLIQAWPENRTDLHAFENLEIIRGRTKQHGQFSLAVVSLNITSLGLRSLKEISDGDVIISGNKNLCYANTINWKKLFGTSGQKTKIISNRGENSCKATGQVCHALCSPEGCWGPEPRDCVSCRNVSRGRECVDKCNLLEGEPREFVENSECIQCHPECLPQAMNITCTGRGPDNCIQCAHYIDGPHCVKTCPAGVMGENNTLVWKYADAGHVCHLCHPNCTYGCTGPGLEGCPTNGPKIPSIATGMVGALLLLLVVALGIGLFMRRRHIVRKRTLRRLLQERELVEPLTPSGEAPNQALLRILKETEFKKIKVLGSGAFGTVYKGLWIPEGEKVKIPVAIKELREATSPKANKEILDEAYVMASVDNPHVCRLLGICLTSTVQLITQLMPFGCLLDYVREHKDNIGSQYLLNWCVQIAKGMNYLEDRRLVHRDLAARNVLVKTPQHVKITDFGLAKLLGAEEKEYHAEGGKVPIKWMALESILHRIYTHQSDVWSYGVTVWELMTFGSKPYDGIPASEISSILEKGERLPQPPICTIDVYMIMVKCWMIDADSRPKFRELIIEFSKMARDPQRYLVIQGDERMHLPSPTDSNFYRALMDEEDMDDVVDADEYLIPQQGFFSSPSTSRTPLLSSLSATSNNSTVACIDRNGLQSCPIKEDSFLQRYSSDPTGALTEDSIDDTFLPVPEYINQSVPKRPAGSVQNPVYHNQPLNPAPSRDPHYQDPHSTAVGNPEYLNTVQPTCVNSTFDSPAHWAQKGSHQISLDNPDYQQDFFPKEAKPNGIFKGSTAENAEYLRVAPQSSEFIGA
PROPERTY: Biochem EGFR %Inhibition (%)

INSERT INTO results (molecule, numeric_result) VALUES
  ('CNS(=O)(=O)c1ccc2c(c1)C(=Cc1cc(O)c(O)c(Br)c1)C(=O)N2', 45.1),
  ('CC(C)(C)c1cc(C=C2C(=O)Nc3ccc(S(=O)(=O)Nc4ccc(C(F)(F)F)cc4)cc32)cc(I)c1OCc1ccccc1', -1.3),
  ('Cc1cc(C=C2C(=O)Nc3ccc(S(=O)(=O)N4CCOCC4)cc32)cc(C)c1OCc1ccccc1', 19.2),
  ('O=C1Nc2ccc(I)cc2C1=Cc1c(F)cc(F)cc1F', 18.4),
  ('COC1CC(C=C2C(=O)Nc3ccc(I)cc32)C(OC)O1 (centres unmarked)', 15.8);
